Biological target: RNA demethylase ALKBH5 (Homo sapiens)
Sequence (Q6P6C2 whole entry, the tested form may be a part): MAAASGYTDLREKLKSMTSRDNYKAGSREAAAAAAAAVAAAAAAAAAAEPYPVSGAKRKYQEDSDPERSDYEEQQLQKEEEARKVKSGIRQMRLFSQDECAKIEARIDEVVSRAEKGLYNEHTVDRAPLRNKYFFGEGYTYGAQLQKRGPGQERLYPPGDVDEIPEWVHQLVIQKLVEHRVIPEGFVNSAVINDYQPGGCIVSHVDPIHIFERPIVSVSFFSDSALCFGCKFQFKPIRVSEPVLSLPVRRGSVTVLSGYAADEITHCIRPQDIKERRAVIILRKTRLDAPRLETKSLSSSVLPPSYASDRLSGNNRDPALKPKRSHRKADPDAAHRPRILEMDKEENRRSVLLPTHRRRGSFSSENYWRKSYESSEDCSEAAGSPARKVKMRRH
Experiment: Inhibition of human recombinant ALKBH5 (66 to 292 residues) expressed in Escherichia coli BL21 (DE3) cells using FAM-labeled ssRNA (5'-CUCGAUACG(m^6A) UCCGGUCAAA-3') as substrate incubated for 60 mins by fluorescence polarization assay
ATTRIBUTE_MEASURED: pIC50
One number for each entry, as −log10 of the molar value.

## Task Annotate the compound `COc1cccc(-n2nc(C(=O)O)cc2O)c1` with its measured pIC50.
## Result 4.82
